Every entry's value here was drawn from the supplement of paper PMC10981050.

test system: K562; experiment: cell viability relative to vehicle control; higher = less cytotoxic; conditions: 10 µM; SRSF2 genotype: SRSF2 wt/wt;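 note: after 48 h exposure read by CellTiter-Glo luminescence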
Structures can show the parent of a compound that is named as a salt.
Hi! Could you tag entries with cell viability below 90% as condition met, and those at or above as condition not met? Much appreciated.

MOLECULE	ASSIGNED CLASS
CCN(CC)CCCC(C)Nc1c2ccc(Cl)cc2nc2ccc(OC)cc12 (stereo not given) [Quinacrine Dihydrochloride Dihydrate]	condition met
CC(C)n1c(/C=C/C(O)CC(O)CC(=O)O)c(-c2ccc(F)cc2)c2ccccc21 (stereo not given) [Fluvastatin sodium (Lescol)]	condition met
CCOC(=O)C1=C[C@@H](OC(CC)CC)[C@H](NC(C)=O)[C@@H](N)C1 [Oseltamivir Phosphate]	condition not met
COc1cc(C(=O)O)ccc1NC(=O)[C@@H]1N[C@@H](CC(C)(C)C)[C@](C#N)(c2ccc(Cl)cc2F)[C@H]1c1cccc(Cl)c1F [Idasanutlin (RG-7388)]	condition met
CCOc1cc(C=O)ccc1OC(C)=O [Ethyl vanillin acetate]	condition not met
CNC1CCCN(c2c(F)cc3c(=O)c(C(=O)O)cn(C4CC4)c3c2OC)C1 (stereo not given) [Balofloxacin]	condition not met
C[C@H]1CO[C@@H]2Cn3cc(C(=O)NCc4ccc(F)cc4F)c(=O)c(O)c3C(=O)N12	condition met
COc1cc2c(cc1O)C[C@H]1c3cc(O)c(OC)cc3CC[N+]1(C)C2 (stereo not given in full) [Phellodendrine chloride]	condition not met
O=C(c1ccc(/C=C/c2n[nH]c3ccccc23)cc1)N1CCNCC1	condition met
CN(C(Cc1ccc(OS(=O)(=O)c2cccc3cnccc23)cc1)C(=O)N1CCN(c2ccccc2)CC1)S(=O)(=O)c1cccc2cnccc12 (stereo not given)	condition met
O=C(Nc1cnn2ccc(N3CCC[C@@H]3c3cc(F)ccc3F)nc12)N1CC[C@H](O)C1 [LOXO-101(sulfate)]	condition not met
O=C(NCc1cccc(O)c1)Nc1nc(-c2ccncc2)cs1	condition not met
